# ASSAYED SYSTEM: T1, recombinant PfMSP1_(19)-GST (Plasmodium falciparum, strain not …, UniProt P04933)
# T1 construct: merozoite surface protein 1 (MSP1), Plasmodium falciparum, C-terminal 19-kDa region (MSP1_19); also called C-terminal 19-kDa region of Plasmodium falciparum merozoite surface protein 1; source: recombinant, purified (Burghaus and Holder, 1994)
# PROCEDURE TEXT: SPR; BIAcore X; PfMSP1_19-GST (50 μg/ml) amine-coupled to a CM5 chip; purified IgGs injected at 2, 1, 0.5, 0.25 and 0.125 μM, 50 μL at 10 μL/min; control Ag in flow cell 2
# MEASUREMENT PARAMETERS: both partners purified
MEASURED METRIC: Ka
Remember to quote the unit after the number.

mouse IgG2a-C1 (PfMSP1_(19)-specific recombinant mouse IgG2a) (antibody, V domains shown, VH of C1 (anti-PfMSP1_19), as the VH of m7; mouse IgG2a heavy-chain constant region, amplified from genomic DNA; VL of C1, as the VL of m7; mouse kappa light chain constant region, amplified from BALB/c genomic DNA; Plasmids pVH-C1-mIgG2a and pVL-C1-mouse kappa; also called mIgG2a-C1; source: CHO-K1, stably transfected; culture supernatant, and purified (protein G-Sepharose)) VH: EVQLVQSGPEVKKPGASVKVSCKTSGYSFTSYDINWVRQAPGQGLEWMGRISPYNGKTDYTQTLRGRVTMSTDTSTTTVYLELRSLKSDDTAVYYCAREGVWFAELLSWGEGTLVTVSS VL: DIVMTQTPGTLSLSPGERATLSCRASQSVSGNYLAWYQQKPGQAPRLLIHGSSDRAAGTPDRFSGRGSGTDFTLTISRLEPEDFAVYYCQQYCSSPFTFGPGTKVEIK ... 3.32e+07 M⁻¹

API: the following record is the query input.
Value lookup for Ka; key = human IgG1-C1 (JS1), parental human IgG1 antibody (antibody, V domains shown, VH of C1 (anti-PfMSP1_19); human IgG1 heavy-chain constant region; VL of C1; light-chain constant region of pVKExpress C1; IgG1; also called hIgG1-C1; (h)IgG1-C1) VH: EVQLVQSGPEVKKPGASVKVSCKTSGYSFTSYDINWVRQAPGQGLEWMGRISPYNGKTDYTQTLRGRVTMSTDTSTTTVYLELRSLKSDDTAVYYCAREGVWFAELLSWGEGTLVTVSS VL: DIVMTQTPGTLSLSPGERATLSCRASQSVSGNYLAWYQQKPGQAPRLLIHGSSDRAAGTPDRFSGRGSGTDFTLTISRLEPEDFAVYYCQQYCSSPFTFGPGTKVEIK
3.94e+07 M⁻¹
